Let's look at some compounds and their measured pIC50.
TARGET OR SYSTEM: EGFR (UniProt P00533)
Sequence (P00533 whole entry, looked up): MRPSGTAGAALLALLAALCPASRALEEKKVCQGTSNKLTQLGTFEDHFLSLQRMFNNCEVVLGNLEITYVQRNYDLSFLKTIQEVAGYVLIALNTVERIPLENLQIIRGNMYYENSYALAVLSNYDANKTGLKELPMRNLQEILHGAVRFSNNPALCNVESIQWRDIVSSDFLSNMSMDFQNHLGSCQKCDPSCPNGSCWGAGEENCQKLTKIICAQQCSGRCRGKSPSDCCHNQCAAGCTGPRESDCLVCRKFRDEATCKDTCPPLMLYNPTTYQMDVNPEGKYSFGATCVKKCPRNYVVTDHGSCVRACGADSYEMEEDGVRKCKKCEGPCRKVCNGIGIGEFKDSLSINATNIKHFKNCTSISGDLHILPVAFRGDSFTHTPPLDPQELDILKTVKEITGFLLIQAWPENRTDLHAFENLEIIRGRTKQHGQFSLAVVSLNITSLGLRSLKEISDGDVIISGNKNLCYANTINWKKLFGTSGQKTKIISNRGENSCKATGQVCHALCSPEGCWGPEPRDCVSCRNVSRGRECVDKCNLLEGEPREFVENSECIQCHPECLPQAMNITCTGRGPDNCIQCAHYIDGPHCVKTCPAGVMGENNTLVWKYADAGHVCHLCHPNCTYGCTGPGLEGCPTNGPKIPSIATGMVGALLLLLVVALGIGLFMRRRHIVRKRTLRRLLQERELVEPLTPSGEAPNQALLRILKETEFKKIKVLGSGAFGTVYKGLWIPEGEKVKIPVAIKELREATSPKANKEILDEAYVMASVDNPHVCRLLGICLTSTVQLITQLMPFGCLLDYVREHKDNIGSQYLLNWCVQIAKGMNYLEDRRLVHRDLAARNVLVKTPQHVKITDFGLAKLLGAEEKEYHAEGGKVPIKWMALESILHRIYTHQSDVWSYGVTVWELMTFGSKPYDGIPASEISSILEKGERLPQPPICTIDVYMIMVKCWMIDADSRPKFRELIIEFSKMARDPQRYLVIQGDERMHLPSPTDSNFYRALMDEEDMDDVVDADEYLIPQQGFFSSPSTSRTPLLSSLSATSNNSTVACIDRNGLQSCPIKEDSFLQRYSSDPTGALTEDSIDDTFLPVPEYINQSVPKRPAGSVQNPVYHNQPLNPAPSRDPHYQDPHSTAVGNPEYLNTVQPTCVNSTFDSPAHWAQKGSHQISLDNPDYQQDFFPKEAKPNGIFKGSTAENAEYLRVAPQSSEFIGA
pIC50: −log10 of the molar value.

| QUERY SMILES | TARGET OR SYSTEM | VALUE PREFIX | pIC50 |
| --- | --- | --- | --- |
| CCn1cnc2c(Nc3cccc(Cl)c3)nc(N[C@@H]3CCCC[C@@H]3N)nc21 | EGFR (UniProt P00533) | < | 5.00 |
| CCn1cnc2c(Nc3cccc(Cl)c3)nc(N[C@H]3CC[C@@H](N)CC3)nc21 | EGFR (UniProt P00533) | = | 5.28 |

###

Lab note: IC50 readings collected with UniProt P00533 for the following molecules.

| QUERY SMILES | DISPLAY UNIT | VALUE PREFIX | IC50 |
| --- | --- | --- | --- |
| CN(C)c1ccc2ncnc(Nc3cccc(Br)c3)c2c1 | nM | = | 120 |
| Nc1cc2ncnc(NCc3ccccc3)c2cn1 | nM | = | 578 |
| CNc1ccc2ncnc(Nc3cccc(Br)c3)c2c1 | nM | = | 7 |
| c1ccc(CNc2ncnc3ncccc23)cc1 | nM | > | 10000 |

###

System: MAPK14 (Balb/c mice)
ASSAY INFO: Cell-Based Assay
CONDITION SUMMARY: peritoneal macrophage

| QUERY SMILES | TARGET OR SYSTEM | IC50, nM |
| --- | --- | --- |
| OCCC#Cc1nc(-c2ccc(F)cc2)c(-c2ccncc2)n1CCCc1ccccc1 | MAPK14 (Balb/c mice) | 19.2 |

###

TARGET OR SYSTEM: UniProtKB P24941
ASSAY INFO: Enzyme Assay
Let's look at some molecules and their measured IC50.
VALUE KIND: IC50

| QUERY SMILES | RESULT |
| --- | --- |
| O=C1/C(=C2\Nc3ccccc3C2=O)Nc2ccccc21 | > 1000 µM |
| O=C1Nc2ccccc2/C1=C1/Nc2ccccc2C1=O | 7.5 µM |
| O=C1Nc2ccc(Cl)cc2/C1=C1/Nc2ccccc2C1=O | 0.55 µM |

###

TARGET OR SYSTEM: EGFR (human)
CONDITION SUMMARY: A431
VALUE KIND: IC50 (nM)

| QUERY SMILES | NUMERIC RESULT |
| --- | --- |
| C=CC(=O)Nc1ccc2ncnc(N(C)C)c2c1 | 910 |

###

TARGET OR SYSTEM: MAPK14 (UniProt Q16539)
Sequence (Q16539 whole entry, looked up): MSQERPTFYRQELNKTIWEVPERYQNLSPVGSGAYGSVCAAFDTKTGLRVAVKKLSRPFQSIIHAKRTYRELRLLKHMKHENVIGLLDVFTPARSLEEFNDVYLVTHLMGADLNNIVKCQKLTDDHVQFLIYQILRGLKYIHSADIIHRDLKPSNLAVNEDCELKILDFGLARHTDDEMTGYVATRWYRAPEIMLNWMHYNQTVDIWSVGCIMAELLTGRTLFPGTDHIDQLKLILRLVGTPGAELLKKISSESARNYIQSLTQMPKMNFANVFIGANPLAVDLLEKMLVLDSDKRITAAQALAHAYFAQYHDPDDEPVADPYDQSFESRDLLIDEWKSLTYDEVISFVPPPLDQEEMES
ASSAY INFO: CSBP Inhibition
Let's look at some molecules and their measured IC50.
VALUE KIND: IC50

| MOLECULE | VALUE KIND | RESULT |
| --- | --- | --- |
| CSc1ccc(-c2ncn(C3CCN(CCC(=O)O)CC3)c2-c2ccnc(SC)n2)cc1 | IC50 | < 50 µM |
| C[S+]([O-])c1ccc(-c2ncn(C3CCN(CCC(=O)O)CC3)c2-c2ccnc([S+](C)[O-])n2)cc1 (configuration not stated) | IC50 | > 50 µM |

###

Lab note: IC50 readings collected with EGFR (human) (UniProt P00533) for the following compounds.
Sequence (P00533 whole entry, looked up): as the sequence (P00533 whole entry, looked up) above

| COMPOUND | DISPLAY UNIT | IC50 |
| --- | --- | --- |
| O=C(/C=C/CN1CC2CC1CO2)Nc1cc2c(Nc3ccc(F)c(Cl)c3)ncnc2cc1OCC1CC1 (centres undefined) | nM | 1.5 |
| O=C(/C=C/CN1CC2CC1CO2)Nc1cc2c(Nc3ccc(F)c(Cl)c3)ncnc2cc1O[C@H]1CCOC1 (some centres undefined) | nM | 0.5 |
| O=C(/C=C/N1CC2CC1CO2)Nc1cc2c(Nc3ccc(F)c(Cl)c3)ncnc2cc1O[C@H]1CCOC1 (some centres undefined) | nM | 0.5 |
| O=C(/C=C/CN1CC2CC1CO2)Nc1cc2c(Nc3ccc(F)c(Cl)c3)ncnc2cc1OC1CCCC1 (centres undefined) | nM | 0.5 |

###

Let's look at some molecules and their measured IC50.
TARGET OR SYSTEM: EGFR (UniProt P00533)

| QUERY SMILES | VALUE PREFIX | IC50 / µM |
| --- | --- | --- |
| CC1=CCC[C@H]2[C@](C)(CC3=C(O)C(=O)C=C(N[C@H](C(=O)O)[C@@H](C)O)C3=O)[C@@H](C)CC[C@]12C | > | 400 |
| CC1=CCC[C@H]2[C@](C)(CC3=C(O)C(=O)C=C(N[C@@H](CO)C(=O)O)C3=O)[C@@H](C)CC[C@]12C | = | 170 |
| CC1=CCC[C@H]2[C@](C)(CC3=C(O)C(=O)C=C(NCC(=O)O)C3=O)[C@@H](C)CC[C@]12C | > | 400 |
| CC1=CCC[C@H]2[C@](C)(CC3=C(O)C(=O)C=C(N[C@H](CO)C(=O)O)C3=O)[C@@H](C)CC[C@]12C | > | 400 |
| CC1=CCC[C@H]2[C@](C)(CC3=C(N[C@H](C(=O)O)[C@@H](C)O)C(=O)C=C(N[C@H](C(=O)O)[C@@H](C)O)C3=O)[C@@H](C)CC[C@]12C | = | 200 |

###

TARGET OR SYSTEM: PIK3CA (human)
ASSAY INFO: Assessment of PIK3CA Kinase Activity
Quick rule for you: IC50 under 100 nM gets yes, anything else gets no.

| QUERY SMILES | ASSIGNED LABEL |
| --- | --- |
| CCOC(=O)N1CCC(n2ncc3c(N4CCO[C@H](C)C4)nc(-c4ccc(NC(=O)Nc5ccncc5)cc4)nc32)CC1 | no |
| NC(=O)c1ccc(NC(=O)Nc2ccc(-c3cc(N4CC5CCC(C4)O5)nc(-c4ccc(NC(=O)Nc5ccc(C(N)=O)cc5)cc4)n3)cc2)cc1 | yes |
| NCCC1CCN(c2nc(N3CCOCC3)cc(-n3c(C(F)F)nc4ccccc43)n2)CC1 | no |
| CCNC(=O)Nc1ccc(-c2nc(N3CCO[C@@H](C)C3)c3cnn(C4CCN(C(=O)OCC)CC4)c3n2)cc1 | no |
| COc1cccc(Nc2nc(-c3cccc4onc(N)c34)nc3c2cnn3C)c1OC | yes |
| COc1cccc2c1nc(C(F)F)n2-c1nc(N2CCOCC2)cc(N2CCN(C(=O)CN)CC2)n1 | yes |

###

TARGET OR SYSTEM: PIK3CD (Human)
ASSAY INFO: Enzyme Assay
pIC50: −log10 of the molar value.
Let's look at some compounds and their measured pIC50.

| QUERY SMILES | TARGET OR SYSTEM | VALUE PREFIX | pIC50 |
| --- | --- | --- | --- |
| Cc1n[nH]c2cc(-c3nn(Cc4oc5ccccc5c(=O)c4-c4cccc(F)c4)c4ncnc(N)c34)ccc12 | PIK3CD (Human) | > | 6.60 |
| COc1ncc(N2CCc3ncnc(N[C@H]4CCN(C(=O)[C@H]5CC[C@H](O)CC5)C4)c3C2)cc1C(F)(F)F | PIK3CD (Human) | = | 8.15 |
| O=C(Nc1cccc(CO)c1)Nc1cccc(-c2nc(N3CCOCC3)c3ncccc3n2)c1 | PIK3CD (Human) | = | 6.08 |
| O=c1cc(N2CCOCC2)oc2c(-c3ccccc3)cccc12 | PIK3CD (Human) | = | 6.57 |
| CC[C@H](Nc1ncnc(N)c1-c1nc(C)no1)c1cc2cccc(C)c2c(=O)n1-c1ccccc1 | PIK3CD (Human) | = | 7.96 |

###

TARGET OR SYSTEM: PIK3CA (human)
ASSAY INFO: Assessment of PIK3CA Kinase Activity
pIC50: −log10 of the molar value.
Lab note: compare pIC50 against 7. Equal or greater, write 1 (yes). Smaller, write 0 (no).

| MOLECULE | ASSIGNED LABEL |
| --- | --- |
| CN1CC2CN(c3cnc4ncc(-c5ccc6oc(N)nc6c5)cc4n3)CC2C1 (centres undefined) | 1 (yes) |
| Cc1ncnc(N2CCC(C)(O)CC2)c1C#Cc1ccc(N)nc1 | 1 (yes) |
| CCNC(=O)Oc1nc2cc(-c3nc(N4CCOCC4)c4ccn(CC(F)(F)F)c4n3)ccc2[nH]1 | 0 (no) |
| O=C(Nc1ccc(-c2nc(N3CCOCC3)nc(N3CCOCC3)n2)cc1)Nc1cccs1 | 1 (yes) |
| O=C(Nc1ccc(-c2nc(N3CCOCC3)nc(N3CCOCC3)n2)cc1)Nc1ccc(F)cc1F | 1 (yes) |
| Cc1nc(N)nc(-c2c(Nc3ccn[nH]3)nc3ccc(CCC(O)CO)cn23)n1 (centres undefined) | 0 (no) |
| CCOC(=O)N1CCC(n2ncc3c(N4CCO[C@@H](C)C4)nc(-c4ccc(NC(=O)Nc5ccncc5)cc4)nc32)CC1 | 1 (yes) |
| COc1cccc(Nc2nc(-c3cccc4[nH]nc(N)c34)nc3c2cnn3C)c1OC | 1 (yes) |
| O=c1n(Cc2ccccc2)c2nc(-c3cccc(O)c3)nc(C3=CCOCC3)c2n1Cc1ccccc1 | 0 (no) |
| O=C(NCCO)Oc1ccc(-c2nc(N3CCOCC3)c3ccn(CC(F)(F)F)c3n2)cc1 | 0 (no) |
| O=C(Nc1ccc(F)cc1)Nc1ccc(-c2nc(N3CCOCC3)nc(N3C4CCC3COC4)n2)cc1 | 1 (yes) |
| CS(=O)(=O)Cc1cc(N2CCOCC2)nc(-c2ccc(NC(=O)c3ccno3)cc2)n1 | 0 (no) |
| CCC1(O)CCN(c2ncnc(C)c2C#Cc2ccc(N)nc2)CC1 | 1 (yes) |
| CN(C(=O)c1cc2c(s1)-c1ccccc1OC2)c1ccccc1F | 0 (no) |
| NC(=O)[C@@H]1CCCN1CC(=O)N1CCN(c2nc(N3CCOCC3)cc(-n3c(C(F)F)nc4ccccc43)n2)CC1 | 0 (no) |
| CCOC(=O)N1CCC(n2ncc3c(N4CCO[C@H](C)C4)nc(-c4ccc(NC(=O)NCCF)cc4)nc32)CC1 | 0 (no) |
| Nc1ncc(-c2nc(N3CCOCC3)nc3c2CCN3c2ccc(CN3CCN(CCCCF)CC3)cc2)cn1 | 1 (yes) |
